# study.system: ATP-sensitive inward rectifier potassium channel 1 (Homo sapiens)
# method.summary: retested modulators of human Kir1.1 channel – cell-based, thallium flux, duplicate, resupplied hits, confirmation (AID 1917)
# condition.notes: ROMK thallium flux, fluorescence ratio; at 10 µM
Screen size: about 3,000 compounds; about 1,600 (53%) were called active. Another 10% or so got no clear call; they are omitted.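 How the source made its calls: active means Flux at 10 µM at least 3 SD below or above vehicle control mean in one or both replicates; inconclusive means no clear call, values can overlap the other calls; inactive means the rest.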 So high a share suggests a set chosen from earlier hits. A selection follows.
Classes used: true (active), false (inactive)

{"compound": "COc1cc2c(cc1OC)C(/C=C/c1ccco1)=NCC2", "class": "true"}
{"compound": "O=C(/C=C/c1ccc(Cl)cc1Cl)c1cccnc1", "class": "true"}
{"compound": "CCOC(=O)c1c(NC(=O)CCl)sc(C(=O)N(CC)CC)c1C", "class": "false"}
{"compound": "CCOc1ccccc1C1C(C(=O)OC)=CN(C)C=C1C(=O)OC", "class": "true"}
{"compound": "N#C/C(=C\\C1=C(N2CCOCC2)C(=C\\c2ccccc2)/CC1)C(=O)Nc1ccccc1F", "class": "true"}
{"compound": "O=C(/C=C/c1ccc(Cl)c([N+](=O)[O-])c1)c1cccnc1", "class": "true"}
{"compound": "Cc1cc(Br)ccc1NC(=O)c1cnc(N2CCN(c3ccccn3)CC2)c2ccccc12", "class": "true"}
{"compound": "N#C/C(=C\\c1ccccc1C(F)(F)F)C(=O)Nc1ccccc1F", "class": "true"}
{"compound": "CCOC(=O)N/N=C1\\CC(C)S(=O)(=O)c2ccc(Cl)cc21 (stereo unspecified)", "class": "false"}
{"compound": "CSc1nc2nc3c(c(=O)n2[nH]1)CCC3", "class": "false"}
{"compound": "O=C(CN1CCOCC1)N/N=C/c1ccc(-c2ccc(Br)cc2)o1", "class": "true"}
